Tested on: CCRF-CEM leukemia
Test: NCI-60 one-dose screen, 48 h (100 = growth as untreated, 0 = no growth, -100 = all killed)
Conditions: 10 µM unless noted
The panel holds about 83,000 compounds, 20% with a hit somewhere; the sample as a whole holds those more often.
We begin with a simple list: items and their reported growth.

{"columns": ["Compound", "U", "growth"],
 "data": [
  ["O=C1CSC(c2cn(-c3ccccc3)nc2-c2ccc(Cl)cc2)N1c1ccccc1 (centres undefined)", "%", 103],
  ["Cc1ccc([C@H]2c3[nH]c4ccccc4c3C[C@H]3C(=O)N(CCCCCCC(=O)NO)CC(=O)N23)s1", "%", 22],
  ["NC(=O)c1c(NC(=O)c2ccc(C(F)(F)F)cc2)sc2c1CCC(=O)C2", "%", -4.99],
  ["O=c1c2cc(-c3ccc(F)cc3F)ccc2n(Nc2ccccc2)c(=O)n1-c1cccc(C(F)(F)F)c1", "%", 15.5],
  ["O=C(CCCCCCN1CC(=O)N2[C@@H](c3ccc(Cl)s3)c3[nH]c4ccccc4c3C[C@H]2C1=O)NO", "%", 16.7],
  ["CCC1=Cc2c(OC)cccc2OC12C=Cc1c(OC)cccc1O2 (centres undefined)", "%", 16.2],
  ["CC1CCN(CC(=O)Nn2c(COc3ccccc3)nc3ccccc3c2=O)CC1", "%", 89.4],
  ["CS(=O)(=O)c1nccc(-c2c(-c3cccc(OCc4ccc(Cl)c(C(F)(F)F)c4)c3)nc3sccn23)n1", "%", 13.2],
  ["C=C(C)[C@@H]1CC[C@]2(COCCCNCCCN)CC[C@]3(C)[C@H](CC[C@@H]4[C@@]5(C)CC[C@H](O)C(C)(C)[C@@H]5CC[C@]43C)[C@@H]12", "%", -40.2]
]}

---

Tested on: SNB-75 CNS
Experiment: NCI-60 one-dose screen, 48 h (100 = growth as untreated, 0 = no growth, -100 = all killed)
Conditions: 10 µM unless noted
This is part of a sample that, as a whole, favours compounds with a hit. Of some 83,000 tested, about 20% had one in any assay. Calls of active or inactive are those of the source. Rule for the calls: active = growth percent below 10; inactive = the rest.

{"columns": ["Smiles Entry", "growth"],
 "data": [
  ["Clc1cccc(/C=N/Nc2nc(N/N=C/c3cccc(Cl)c3)nc(N3CCCCC3)n2)c1", "102% (inactive)"],
  ["C#CCOc1ccc(-c2csc(NC(=O)C=C)n2)cc1NS(=O)(=O)c1cccc2c(N(C)C)cccc12", "1.15% (active)"],
  ["Cc1ccsc1[C@H]1c2[nH]c3ccccc3c2C[C@H]2C(=O)N(CCCCCCC(=O)NO)CC(=O)N12", "51.8% (inactive)"],
  ["CN1CCN(Cc2ccc(NC(=O)c3cncc(C#Cc4cnc(N)nc4)c3)cc2C(F)(F)F)CC1", "41.5% (inactive)"],
  ["Cc1ccc2c(n1)C(=O)C(Cl)=C(Nc1ccc(C#N)cc1)C2=O", "110% (inactive)"]
]}

---

System: U251 CNS
Assay: NCI-60 one-dose screen, 48 h (100 = growth as untreated, 0 = no growth, -100 = all killed)
Conditions: 10 µM unless noted
About 83,000 compounds went through this panel and 20% of them were active in at least one assay; those are over-represented in the sample as a whole.
Answer false if growth is under 60%, and true if it is 60% or more.

{"columns": ["Molecule", "Assay System", "Assigned Category"],
 "data": [
  ["C=CCSC1=NC2C(N(CC)C(=O)N2CC)N1/N=C/C=C/c1ccccc1OC (stereo not given)", "U251 CNS", "true"],
  ["O=C(Nc1ccc(Cl)c(C(F)(F)F)c1)Nc1ccc2oc(=O)ccc2c1", "U251 CNS", "false"],
  ["Cn1cc(-c2nn3cc(-c4ccncc4)nc3s2)c2cc(Br)ccc21", "U251 CNS", "false"],
  ["NS(=O)(=O)c1cccc(Nc2nc(SCC(=O)c3ccc(Cl)cc3)nc3c2CCC3)c1", "U251 CNS", "true"],
  ["CCc1cc(OC(=O)N2CCC(N3CCCCC3)CC2)ccc1Nc1cc(-c2ccc(-n3cccn3)cc2)[nH]n1", "U251 CNS", "false"]
]}

---

Test system: OVCAR-8 ovarian
Experiment: NCI-60 one-dose screen, 48 h
Conditions: 10 µM unless noted
Protocol: Growth inhibition of the OVCAR-8 human tumor cell line is measured as a screen for anti-cancer activity. Cells are grown in 96 well plates and exposed to the test compound for 48 hours. Compounds are tested at a single concentration, which is 10^-5 M for most compounds. The reported endpoint is percent growth (GI% or GIPRCNT), where numbers from 0 - 100% represent growth inhibition, and numbers from -100% - 0 represent cell death. For example, a value of 40 represents 60% growth inhibition. […]
Compounds without any hit were thinned out: in the full panel of roughly 83,000, 20% have a hit. Active and inactive are the calls of the source. How the source made its calls: active means growth percent below 10; inactive means the rest.
Outcome codes: T (active), F (inactive)

{"columns": ["Compound", "Assigned Category"],
 "data": [
  ["COc1ccc(/C=N/NC(=O)CSc2nc(-c3cnccn3)cc(-c3cccs3)c2C#N)cc1", "F"],
  ["COc1ccc(C2C(C#N)=C(/N=C/c3ccc(Cl)cc3)Oc3c2sc2c(C)cccc32)cc1 (centres undefined)", "F"],
  ["O=C(/C=C/c1cccc(F)c1)c1cccc(OCCCOc2cccc(C(=O)/C=C/c3cccc(F)c3)c2)c1", "F"],
  ["COc1ccc(Cn2cc(C#N)c(N)c2C(C)=O)cc1", "F"],
  ["CNCCN(C)c1ccc(Nc2cc(NC3CC3)n3ncc(C#N)c3n2)cc1NC(C)=O", "F"],
  ["CN1CCN(c2ccc(Nc3nc(NCCCNS(=O)(=O)c4ccc(F)cc4)c4sccc4n3)cc2)CC1", "F"],
  ["CCOC(=O)c1cnc2c(-c3ccc(Cl)c(Cl)c3)cnn2c1", "F"],
  ["O=C(CCCCCCNC(=O)C(O)(O)C(F)(F)F)Nc1ncc(-c2ccc(Br)cc2)s1", "T"],
  ["C[C@H]1OCC2(CCN(c3cnc(C(=O)Nc4cc(F)cc5cccnc45)cn3)CC2)[C@H]1N", "F"]
]}

---

We begin with a simple list: items and their reported growth.
Tested on: RXF 393 renal
Test: NCI-60 one-dose screen, 48 h (100 = growth as untreated, 0 = no growth, -100 = all killed)
Settings: 10 µM unless noted
Compounds without any hit were thinned out: in the full panel of roughly 83,000, 20% have a hit. Active and inactive are the calls of the source. How the source made its calls: active means growth percent below 10; inactive means the rest.

{"columns": ["Compound", "Assay System", "growth"],
 "data": [
  ["Clc1cccc(/C=N/Nc2nc(N/N=C/c3cccc(Cl)c3)nc(N3CCCCC3)n2)c1", "RXF 393 renal", "93.4% (inactive)"],
  ["COC(=O)c1ccc(NC2=C(Cl)C(=O)C(C)=C(C)C2=O)cc1", "RXF 393 renal", "65.8% (inactive)"],
  ["C=C(C)[C@@H]1CC[C@]2(C(=O)NC3CCCCC3)CC[C@]3(C)[C@H](CC[C@@H]4[C@@]5(C)CC[C@H](N)C(C)(C)[C@@H]5CC[C@]43C)[C@@H]12", "RXF 393 renal", "93.7% (inactive)"],
  ["COc1cccc2c1[C@H](OC)[C@]13O[C@@]1(C2=O)[C@H](O)[C@H](C)[C@@](O)(C(=O)[C@@H]1O[C@H]1C)[C@@H]3O", "RXF 393 renal", "-77.3% (active)"],
  ["C=C(C)[C@@H]1CC[C@]2(C(=O)N3CCN(C)CC3)CC[C@]3(C)[C@H](CC[C@@H]4[C@@]5(C)CC[C@H](OP(=O)(OCC)OCC)C(C)(C)[C@@H]5CC[C@]43C)[C@@H]12", "RXF 393 renal", "59.5% (inactive)"],
  ["CCCCCC[n+]1ccc(SCC(=O)n2ccc3ccccc32)c2ccccc21", "RXF 393 renal", "113% (inactive)"],
  ["COc1ccccc1/C=C1\\Oc2ccc(O)c(O)c2C1=O", "RXF 393 renal", "90.2% (inactive)"],
  ["O=C1[C@@H]2Cc3c([nH]c4ccccc34)[C@@H](c3ccc(Cl)cc3)N2C(=O)CN1C1CCN(Cc2ccccc2)CC1", "RXF 393 renal", "50.3% (inactive)"],
  ["CC1=C(C)C(=O)C(Nc2ccc(C)cc2)=C(Br)C1=O", "RXF 393 renal", "97.7% (inactive)"],
  ["CC(Nc1c(C#N)cnc2ccc(-c3cncc(O)c3)cc12)c1ccccc1 (stereo unspecified)", "RXF 393 renal", "-24.6% (active)"],
  ["O=C(CCCCCCNC(=O)C(O)(O)C(F)(F)F)Nc1nc2ccccc2s1", "RXF 393 renal", "-47.3% (active)"],
  ["CN1CCN(Cc2ccc(NC(=O)c3cncc(C#Cc4cnc5ccc(N)nn45)c3)cc2C(F)(F)F)CC1", "RXF 393 renal", "-9.41% (active)"],
  ["Cc1ccccc1Nc1nc(SC(C)C)nc(-c2ccccc2)c1C#N", "RXF 393 renal", "28.1% (inactive)"],
  ["COc1ccc(C(C)=C(c2ccc(OCCN(C)C)cc2)c2ccc(OCCN(C)C)cc2)cc1", "RXF 393 renal", "-79.1% (active)"],
  ["C#C[C@]1(O)CC[C@H]2[C@@H]3CC=C4c5sc(Nc6cc(Cl)ccc6OC)nc5CC[C@]4(C)[C@H]3CC[C@@]21C", "RXF 393 renal", "-74.9% (active)"],
  ["Nc1ccc(Nc2ncnc3sc4c(c23)CCN(Cc2ccccc2)C4)cc1", "RXF 393 renal", "91.2% (inactive)"],
  ["COc1ccccc1N1CCN(C2=C(Cl)C(=O)c3ncccc3C2=O)CC1", "RXF 393 renal", "71% (inactive)"],
  ["O=C(/C=C/c1cc(Cl)ccc1Cl)Nc1ncc(Cc2ccc(Cl)cc2)s1", "RXF 393 renal", "33.7% (inactive)"],
  ["CN1CCN(c2ccc(Nc3nc(NCCCNS(=O)(=O)c4ccc(Cl)cc4)c4sccc4n3)cc2)CC1", "RXF 393 renal", "-76.7% (active)"],
  ["CCn1c2ccc(/C=N/N(C)S(=O)(=O)CCN(C)C)cc2c2cc(/C=N/N(C)S(=O)(=O)CCN(C)C)ccc21", "RXF 393 renal", "46.9% (inactive)"],
  ["Cc1ccc(/C=N/Nc2nc(Nc3ccccc3)nc(Nc3ccc(S(N)(=O)=O)cc3)n2)cc1", "RXF 393 renal", "-2.59% (active)"],
  ["NS(=O)(=O)c1ccc(Nc2nc(Nc3ccccc3)nc(N3N=C(c4ccc(Cl)cc4)CC3c3ccc(Cl)cc3)n2)cc1 (stereo unspecified)", "RXF 393 renal", "-3.26% (active)"],
  ["C#CCOc1cccc(/C(N)=N/C(N)=N/c2nc3ccccc3s2)c1", "RXF 393 renal", "116% (inactive)"],
  ["CS(=O)(=O)c1ccc(/C(=N/N=C(N)N)c2ccc(F)cc2)cc1", "RXF 393 renal", "86.1% (inactive)"],
  ["CCOC(=O)c1c(NC(=O)c2ccc(C(F)(F)F)cc2)sc2c3c(ccc12)OCN(C)C3", "RXF 393 renal", "-70% (active)"],
  ["Cc1ccc2c(n1)C(=O)C(Cl)=C(Nc1ccc(C(=O)OC(C)(C)C)cc1)C2=O", "RXF 393 renal", "-19.3% [9.25 µM] (active)"],
  ["C#CCN(C)CCCOc1ccc(NCc2ccc(/C=C/C(=O)NO)cc2)cc1Cl", "RXF 393 renal", "-56.2% (active)"],
  ["CC(C)C(/C=C/c1[nH]ncc1-c1cc(Cl)ccc1O)N1CCOCC1 (stereo unspecified)", "RXF 393 renal", "88.3% (inactive)"],
  ["Cc1nc(/N=C(N)/N=C(\\N)c2cccc(Br)c2)sc1C", "RXF 393 renal", "56.9% (inactive)"],
  ["NS(=O)(=O)c1ccc(Nc2nc(N/N=C/C=C/c3ccccc3)nc(Nc3ccccc3)n2)cc1", "RXF 393 renal", "-8.45% (active)"],
  ["CCCNNC(=O)c1ccc(-c2ccc(NC(=O)CCCCCCC(=O)N[C@H](C(=O)N3C[C@H](O)C[C@H]3C(=O)N[C@@H](C)c3ccc(-c4scnc4C)cc3)C(C)(C)C)cc2)cc1", "RXF 393 renal", "-33% (active)"],
  ["O=C1[C@@H]2Cc3c([nH]c4ccccc34)[C@@H](c3ccc(Cl)cc3)N2C(=O)CN1C1CCN(Cc2c(F)cccc2F)CC1", "RXF 393 renal", "44.4% (inactive)"],
  ["O=C(/C=C/c1ccccc1Cl)Nc1ncc(Cc2cc(Cl)ccc2Cl)s1", "RXF 393 renal", "17.2% (inactive)"],
  ["Fc1ccc(-c2cn3c(-c4c[nH]c5ccc(Br)cc45)csc3n2)cc1", "RXF 393 renal", "79.6% (inactive)"],
  ["O=S1SC(c2ccccc2)=NN1c1cc(F)cc(F)c1 (stereo unspecified)", "RXF 393 renal", "52.2% (inactive)"],
  ["CN1CCN(c2ccc(Nc3nc(NCCCNS(=O)(=O)c4cccc5ccccc45)c4sccc4n3)cc2)CC1", "RXF 393 renal", "-87.1% (active)"]
]}
